experiment: Cytotoxicity, MTT/MTS assay; assay type: cell-based, human; settings: human, SH-SY5Y neuroblastoma cells; percentage of cell death after 24 h treatment at 100 µM (duplicate); read-out: SY5Y % Cytotox
attribute.measured: cytotoxicity at 24 h, 100 µM
A bare number is not enough; add the unit after it.

Query block: # get_value(readout='cytotoxicity at 24 h, 100 µM', item= CN(CCC(=O)NCc1ccc(C#N)cc1)Cc1ccccc1 )
Result block: 8%

Query block: What about this compound? CN(CCC(=O)NCc1ccc([N+](=O)[O-])cc1)Cc1ccccc1
Result block: 9%

Respectfully, I request cytotoxicity at 24 h, 100 µM for each entry included below.
1. CN(CCC(=O)NCc1cccc(Cl)c1)Cc1ccccc1
2. CN(CCC(=O)NCc1ccc(Cl)cc1)Cc1ccccc1
3. CN(CCC(=O)NCc1ccc(Cl)cc1Cl)Cc1ccccc1
4. CN(CCCNC(=O)c1ccc(Cl)cc1)Cc1ccccc1

Result block:
1. 12%
2. 1%
3. 37%
4. 28%
